# log10 of IC50 annotations
target: N-acylethanolamine-hydrolyzing acid amidase (Rattus norvegicus); experiment: Inhibition of rat NAAA expressed in HEK293 cells using heptadecenoylethanolamide as substrate after 30 mins HPLC-MS/MS analysis
Sequence (Q5KTC7 34-130 limits assumed): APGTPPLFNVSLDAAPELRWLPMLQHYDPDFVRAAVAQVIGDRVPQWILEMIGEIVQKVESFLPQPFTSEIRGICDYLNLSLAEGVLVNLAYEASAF
Sequence (Q5KTC7 131-362 limits assumed): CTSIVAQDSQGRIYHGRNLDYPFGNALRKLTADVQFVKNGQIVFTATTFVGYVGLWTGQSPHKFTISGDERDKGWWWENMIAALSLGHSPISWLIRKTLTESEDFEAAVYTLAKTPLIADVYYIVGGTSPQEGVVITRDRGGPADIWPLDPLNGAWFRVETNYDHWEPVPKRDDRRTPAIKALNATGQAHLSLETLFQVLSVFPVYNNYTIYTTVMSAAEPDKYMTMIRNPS
On a log10 scale: recorded IC50, unit µM.

A selection of reference data follows.
Compound: O=C(CCC1CCC(c2ccccc2)CC1)N1CCCC1 (stereo not drawn)
log10 of IC50: -0.32

Compound: O=C(CCCCCCc1ccc(Cl)cc1)N1CCCC1
log10 of IC50: 1.54

Compound: Cc1ccccc1CCCCCCC(=O)N1CCCC1
log10 of IC50: 1.84

Compound: Cc1ccc(CCCCCCC(=O)N2CCCC2)cc1
log10 of IC50: 0.98

Compound: O=C(CCc1ccc(-c2ccc(Cl)cc2)cc1)N1CCCC1
log10 of IC50: 1.69

stdin: Dear colleague, I am looking for the recorded log10 of IC50 of the following compound: O=C(CCc1ccc(-c2cccc(F)c2)cc1)N1CCCC1
stdout: 0.26

stdin: Any idea what its log10 of IC50 is? The compound is O=C(CCc1ccc(-c2ccc(F)cc2)cc1)N1CCCC1
stdout: 0.53

stdin: Given O=C(CCC1CCC(Oc2ccccc2)CC1)N1CCCC1 (stereo not drawn) , state its recorded log10 of IC50.
stdout: 0.45

stdin: Value lookup for log10 of IC50; key = Cc1cccc(CCCCCCC(=O)N2CCCC2)c1
stdout: 0.92

stdin: Return reported log10 of IC50; argument: O=C(CCc1ccc(-c2cccc(Cl)c2)cc1)N1CCCC1
stdout: 1.40

stdin: Which measured log10 of IC50 value corresponds to O=C(CCCCCCc1ccc(O)cc1)N1CCCC1 ?
stdout: 0.75

stdin: # input compound: O=C(CCCCCCC1CCCCC1)N1CCCC1 ; wanted: its log10 of IC50
stdout: 0.76

stdin: Can you look up the measured log10 of IC50 of O=C(CCc1ccc(-c2ccccc2F)cc1)N1CCCC1 for me?
stdout: 0.45
